System: NCI/ADR-RES complex spheroid viability
ASSAY: Anticancer human tumor NCI/ADR-RES cell line growth inhibition;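 also: spheroids exposed to compounds for 7 days; 100% = DMSO vehicle treated spheroids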
STATED_CONDITIONS: second compound 3.16 µM; first compound 0.001 µM; hits give low values
QUANTITY: viability, T/C (%)
Numbers only, in %.

Example entries begin here.
compound="CC[C@@]1(O)C(=O)OCc2c1cc1n(c2=O)Cc2cc3c(CN(C)C)c(O)ccc3nc2-1 + NC1CC1c1ccc(-c2cccc(O)c2)cc1" quantity="viability, T/C" assay_value=94
compound="CC[C@@]1(O)C(=O)OCc2c1cc1n(c2=O)Cc2cc3c(CN(C)C)c(O)ccc3nc2-1 + NC1CCC(NC2CC2c2ccccc2)CC1" quantity="viability, T/C" assay_value=98.8
compound="CC(C)CC(NC(=O)C(Cc1ccccc1)NC(=O)c1cnccn1)B(O)O (stereo not drawn) + NC1CC1c1ccc(-c2cccc(O)c2)cc1" quantity="viability, T/C" assay_value=98.8
compound="CC(C)CC(NC(=O)C(Cc1ccccc1)NC(=O)c1cnccn1)B(O)O (stereo not drawn) + NC1CCC(NC2CC2c2ccccc2)CC1" quantity="viability, T/C" assay_value=97.1
compound="CC(C)CC(NC(=O)CNC(=O)c1cc(Cl)ccc1Cl)B1OC(=O)CC(CC(=O)O)(C(=O)O)O1 (stereo not drawn) + NC1CC1c1ccc(-c2cccc(O)c2)cc1" quantity="viability, T/C" assay_value=94.7

Record viability, T/C per entry; entries follow.
1. Cn1ncnc1C1c2n[nH]c(=O)c3cc(F)cc(c23)NC1c1ccc(F)cc1 (stereo not drawn) + NC1CCC(NC2CC2c2ccccc2)CC1
2. Cn1ncnc1C1c2n[nH]c(=O)c3cc(F)cc(c23)NC1c1ccc(F)cc1 (stereo not drawn) + NC1CC1c1ccc(-c2cccc(O)c2)cc1
3. CC(C)CC(NC(=O)CNC(=O)c1cc(Cl)ccc1Cl)B1OC(=O)CC(CC(=O)O)(C(=O)O)O1 (stereo not drawn) + NC1CCC(NC2CC2c2ccccc2)CC1

result:
109
99.3
98.3
